# pIC50 listing for each entry below
# assay.comment: Inhibitory activity towards Alpha-glucosidase from Yeast (maltase)
# Parameters: species or system Saccharomyces cerevisiae
pIC50 field: float, defined as -log10 of concentration (mol/L).

Fill in: pIC50 of OC1CNC(CNCn2ccnc2)C1O (stereo not drawn) is ___ 3.21

Fill in: pIC50 of OC1CNC(CNCc2ccco2)C1O (stereo not drawn) is ___ 3.55

Now consider a different compound.
Fill in: pIC50 of OC1CNC(CNCC2CCN(Cc3ccccc3)CC2)C1O (stereo not drawn) is ___ 3.21

====

# Tested on: Saccharomyces cerevisiae
# assay.comment: Percentage inhibition of Alpha-glucosidase from Yeast (maltase) at 1 mM
observable: inhibition (%)
Your answer is read as %, so omit the unit and give the number.

The examples below pair each entry with its known result.
Fill in: inhibition of OC1CNC(CNC2CCCC2)C1O (stereo unspecified) is ___ 30

Fill in: inhibition of OC1CNC(CNCc2ccco2)C1O (stereo unspecified) is ___ 66

More entries:
Fill in: inhibition of NCC1NCC(O)C1O (stereo unspecified) is ___ 84

Fill in: inhibition of OC1CNC(CNCn2ccnc2)C1O (stereo unspecified) is ___ 55

Fill in: inhibition of CC(NCC1NCC(O)C1O)C(O)(c1ccccc1)c1ccccc1 (stereo unspecified) is ___ 28

Fill in: inhibition of OC1CNC(CNCC2CCN(Cc3ccccc3)CC2)C1O (stereo unspecified) is ___ 55

====

# measured.target: Beta-galactosidase (Escherichia coli K-12) (UniProt P00722)
# Sequence (P00722 whole entry): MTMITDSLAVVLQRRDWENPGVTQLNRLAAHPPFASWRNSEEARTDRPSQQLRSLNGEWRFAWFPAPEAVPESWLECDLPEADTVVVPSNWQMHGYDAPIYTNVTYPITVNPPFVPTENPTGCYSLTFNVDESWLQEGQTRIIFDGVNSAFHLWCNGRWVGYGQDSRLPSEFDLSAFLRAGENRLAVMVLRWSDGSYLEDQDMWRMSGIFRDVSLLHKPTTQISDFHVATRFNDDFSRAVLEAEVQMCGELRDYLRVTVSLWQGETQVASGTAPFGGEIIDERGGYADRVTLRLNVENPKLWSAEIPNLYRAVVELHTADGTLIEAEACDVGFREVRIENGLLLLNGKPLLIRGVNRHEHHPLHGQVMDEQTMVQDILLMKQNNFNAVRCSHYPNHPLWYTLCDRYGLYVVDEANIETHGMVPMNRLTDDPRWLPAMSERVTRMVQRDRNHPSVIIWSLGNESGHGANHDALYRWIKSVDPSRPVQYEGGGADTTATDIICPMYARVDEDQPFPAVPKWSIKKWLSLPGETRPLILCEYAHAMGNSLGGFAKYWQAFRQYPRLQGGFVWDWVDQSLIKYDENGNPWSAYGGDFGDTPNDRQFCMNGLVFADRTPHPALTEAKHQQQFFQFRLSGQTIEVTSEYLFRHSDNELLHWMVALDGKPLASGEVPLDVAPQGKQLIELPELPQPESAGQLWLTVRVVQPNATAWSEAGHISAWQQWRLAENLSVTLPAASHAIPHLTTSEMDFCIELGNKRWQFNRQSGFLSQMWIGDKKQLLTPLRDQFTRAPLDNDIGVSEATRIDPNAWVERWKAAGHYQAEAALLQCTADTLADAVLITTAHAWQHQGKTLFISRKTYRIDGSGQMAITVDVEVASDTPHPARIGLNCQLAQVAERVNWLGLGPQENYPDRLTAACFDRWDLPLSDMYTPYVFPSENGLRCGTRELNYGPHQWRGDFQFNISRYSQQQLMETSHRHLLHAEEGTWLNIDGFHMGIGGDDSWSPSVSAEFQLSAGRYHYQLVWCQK
# assay.comment: Percentage inhibition of Beta-galactosidase from Escherichia coli at 1 mM concentration; No inhibition
Active and inactive are the calls of the source. The calls are words filed in the database; no cut-off is given here.
observable: inhibition

The examples below pair each entry with its known result.
Fill in: inhibition of CC(=O)N(Cc1ccccc1)CC1NCC(O)C1O (stereo unspecified) is ___ inactive

Fill in: inhibition of OC1CNC(CNC2CCCC2)C1O (stereo unspecified) is ___ inactive

Fill in: inhibition of OC1CNC(CNCc2ccco2)C1O (stereo unspecified) is ___ inactive

Fill in: inhibition of OC1CNC(CNCc2cccs2)C1O (stereo unspecified) is ___ inactive

Fill in: inhibition of OCC(O)[C@H]1NC[C@H](O)[C@@H]1O (stereo partly specified) is ___ inactive

Now consider a different compound.
Fill in: inhibition of OC1CNC(CCNc2ccccc2)C1O (stereo unspecified) is ___ inactive

====

# assay.comment: Inhibitory activity towards Beta-galactosidase from Aspergillus oryzae
observable: pKi
pKi field: float, defined as -log10 of concentration (mol/L).

Fill in: pKi of OC(O)CC1NCC(O)C1O (stereo unspecified) is ___ 4.12

====

# measured.target: Alpha-glucosidase (Oryza sativa Japonica Group)
# Sequence (whole entry): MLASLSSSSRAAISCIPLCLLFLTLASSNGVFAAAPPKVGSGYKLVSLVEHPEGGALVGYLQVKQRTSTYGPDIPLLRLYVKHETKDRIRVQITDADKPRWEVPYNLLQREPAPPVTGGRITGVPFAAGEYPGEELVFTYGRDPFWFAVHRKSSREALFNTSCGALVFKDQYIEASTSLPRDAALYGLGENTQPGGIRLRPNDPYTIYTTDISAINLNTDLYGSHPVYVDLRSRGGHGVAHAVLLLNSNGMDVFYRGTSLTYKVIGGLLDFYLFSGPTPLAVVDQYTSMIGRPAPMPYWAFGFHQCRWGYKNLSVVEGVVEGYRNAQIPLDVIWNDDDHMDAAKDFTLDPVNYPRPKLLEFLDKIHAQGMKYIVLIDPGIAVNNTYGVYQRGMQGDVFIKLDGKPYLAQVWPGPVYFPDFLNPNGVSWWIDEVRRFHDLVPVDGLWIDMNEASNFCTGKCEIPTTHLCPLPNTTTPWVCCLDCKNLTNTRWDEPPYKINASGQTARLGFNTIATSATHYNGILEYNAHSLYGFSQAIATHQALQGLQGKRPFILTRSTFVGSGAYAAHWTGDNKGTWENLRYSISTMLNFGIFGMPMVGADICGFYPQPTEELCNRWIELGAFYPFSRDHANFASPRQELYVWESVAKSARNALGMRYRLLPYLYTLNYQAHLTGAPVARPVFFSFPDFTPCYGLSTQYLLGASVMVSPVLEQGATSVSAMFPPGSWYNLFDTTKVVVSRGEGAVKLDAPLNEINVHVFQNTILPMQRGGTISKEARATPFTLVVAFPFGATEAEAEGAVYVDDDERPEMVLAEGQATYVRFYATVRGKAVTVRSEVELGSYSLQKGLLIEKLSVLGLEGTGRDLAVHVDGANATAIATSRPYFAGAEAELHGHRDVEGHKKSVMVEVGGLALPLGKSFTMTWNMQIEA
# assay.comment: Percentage inhibition of Alpha-glucosidase from Rice (maltase) at 1 mM; […]
The source made the active and inactive calls. The rule behind the calls is not given here.
observable: inhibition

Fill in: inhibition of OC(O)CC1NCC(O)C1O (stereo not drawn) is ___ inactive

Fill in: inhibition of "O[C@@H]1CNC[C@@H]1O" is ___ inactive

Fill in: inhibition of OC1CNC(CCNc2ccccc2)C1O (stereo not drawn) is ___ inactive

Fill in: inhibition of CC(NCC1NCC(O)C1O)C(O)(c1ccccc1)c1ccccc1 (stereo not drawn) is ___ inactive

More entries:
Fill in: inhibition of C[C@@H](NCC1NCC(O)C1O)c1ccccc1 (stereo partly drawn) is ___ inactive
